The measured values listed here are drawn from paper PMC12040169.

# test-name: in vitro
# run-parameters: human, hela cells, % viability
endpoint-label: viability at 28.5 h, 10 µM (%)

>>> df
                            chemical_smiles              endpoint_label  uom  readout_value
0    Cc1ccc2nc(-c3ccc(N)cc3)sc2c1S(=O)(=O)O  viability at 28.5 h, 10 µM    %           96.3
1      CCc1nnc(NS(=O)(=O)c2c(C)nn(C)c2Cl)s1  viability at 28.5 h, 10 µM    %            112
2  C#CCNS(=O)(=O)c1ccc(C(=O)Nc2ccnn2Cc2ccccc2)cc1  viability at 28.5 h, 10 µM    %           96.4
3  COc1ncc(-c2cc(N3CCN(CCN(C)C)CC3)n3nccc3n2)c(OC)n1  viability at 28.5 h, 10 µM    %           87.7
4            CC(=O)Nc1ccc(-c2nc[nH]c2Br)cc1  viability at 28.5 h, 10 µM    %             88
